Literature compilation of pIC50 measurements on Ribosomal protein S6 kinase alpha-3 (Homo sapiens, UniProt P51812).
pIC50: −log10 of the molar value.
OUTCOME_MEASURE: pIC50

INSERT INTO measurements (molecule, outcome_measure, result_value) VALUES
  ('C[C@@H]1NC(=O)c2cc3ccc(C(=O)Nc4nc5ccccc5n4CCCN(C)C)nc3n2[C@H]1C (relative stereo)', 'pIC50', 6.69),
  ('O=C(Nc1cccc(F)c1)c1ccc2cc3n(c2n1)CCCNC3=O', 'pIC50', 7.70),
  ('O=C(Nc1cccc(-c2c[nH]cn2)c1)c1ccc2nc3n(c2c1)CCCNC3=O', 'pIC50', 5.77),
  ('C[C@@H]1CNC(=O)c2cc3ccc(C(=O)Nc4cnn(Cc5ccccc5)c4)cc3n2[C@H]1C', 'pIC50', 7.36),
  ('CN1CCC(NC(=O)N2Cc3nc(Nc4ccccc4)ncc3C2(C)C)C1 (stereo not shown)', 'pIC50', 5.41);

(a) O=C(Nc1cc(Cc2ccccc2)on1)c1ccc2cc3n(c2c1)CCCNC3=O
(b) O=C(Nc1nc2ccccc2n1CC(F)(F)F)c1ccc2cc3n(c2c1)CCCNC3=O
Ask | Please compare: a and b . Report which one has the smaller pIC50 value. Return value: the label identifying the chosen record.
Reply | a

(1) O=C(Nc1cnn(Cc2ccccc2)c1)c1ccc2nc3n(c2c1)CCCNC3=O
(2) CCOC(=O)c1nc(NC(=O)c2ccc3cc4n(c3n2)CCCNC4=O)cn1C
Ask | Which item exceeds the other in pIC50, 1 or 2 ? Return value: the label identifying the chosen record.
Reply | 1

====

Literature compilation of pIC50 measurements on Ribosomal protein S6 kinase alpha-3 (Homo sapiens, UniProt P51812).
pIC50: −log10 of the molar value.

Before answering, review these 4 worked examples.
INSERT INTO assay_data (molecule, result_value) VALUES
  ('COc1ccc(N2C(=O)[C@@H](C)N([C@H]3CC[C@@H](C)CC3)c3nc(Nc4cc(F)c5[nH]ncc5c4)ncc32)cc1OC', '≥ 7.00'),
  ('O=C(Nc1cccnc1)c1ccc2cc3n(c2n1)CCCNC3=O', 7.43),
  ('O=C(Nc1cccc(-c2cc[nH]n2)c1)c1ccc2cc3n(c2c1)CCCNC3=O', 7.39),
  ('CC(C)n1c(NC(=O)c2ccc3cc4n(c3c2)C(C)CNC4=O)nc2ccccc21 (stereo not drawn)', 8.14);

Ask | State its pIC50 on Ribosomal protein S6 kinase alpha-3 (Homo sapiens, UniProt P51812): C[C@@H]1C(=O)N(c2cccc(C#N)c2)c2cnc(Nc3ccc(C(=O)O)c(F)c3)nc2N1C1CCC(F)(F)CC1
Reply | ≥ 7.00

Ask | State its pIC50 on Ribosomal protein S6 kinase alpha-3 (Homo sapiens, UniProt P51812): C[C@@H]1C(=O)N(c2cccc(C#N)c2)c2cnc(Nc3cnc4[nH]ncc4c3)nc2N1C1CCC(F)(F)CC1
Reply | ≥ 7.00

Ask | State its pIC50 on Ribosomal protein S6 kinase alpha-3 (Homo sapiens, UniProt P51812): C[C@@H]1C(=O)N(c2cccc(C#N)c2)c2cnc(Nc3cc(F)c(O)c(F)c3)nc2N1C1CCC(F)(F)CC1
Reply | ≥ 7.00

====

Literature compilation of IC50 measurements on Ribosomal protein S6 kinase alpha-3 (Homo sapiens).
OUTCOME_MEASURE: IC50 (nM)

Before answering, review these 5 worked examples.
INSERT INTO measurements (compound, result_value) VALUES
  ('COc1ccccc1NC(=O)c1ccc2cc3n(c2c1)CCCNC3=O', 400),
  ('CC1(C)c2cnc(Nc3ccccc3)nc2CN1C(=O)NCCO', 14000),
  ('CC(C)n1ncc2cc(NC(=O)c3ccc4cc5n(c4n3)[C@H](C)CNC5=O)cnc21', 4),
  ('N#Cc1ccc2[nH]c(NC(=O)c3ccc4cc5n(c4c3)CCCNC5=O)nc2c1', 4.9),
  ('C[C@H]1NC(=O)c2cc3ccc(C(=O)Nc4cc(Cc5ccccc5)on4)nc3n2[C@H]1C (relative stereo)', 5.1);

(P) CC1CCNC(=O)c2cc3ccc(C(=O)Nc4nc5ccccc5n4CCCN(C)C)nc3n21 (stereo not shown)
(Q) C[C@@H]1NC(=O)c2cc3ccc(C(=O)Nc4cnn(Cc5ccccc5)c4)cc3n2[C@@H]1C
(R) O=C(Nc1cnn(Cc2ccccc2)c1)c1ccc2cc3n(c2n1)CCCNC3=O
(S) CC1(C)CNC(=O)c2cc3ccc(C(=O)Nc4cc(C5CC5)on4)nc3n2C1
(T) Cn1c(NC(=O)c2ccc3cc4n(c3c2)C(C)(C)CNC4=O)nc2ccccc21
Ask | Form: Sort by [IC50] Order [ ascending ] Output the labels ranked as instructed.
Reply | Q, T, R, P, S
(Q: 0.42 nM, T: 0.62 nM, R: 3.8 nM, P: 27 nM, S: 43 nM)
